Target: cAMP-dependent protein kinase catalytic subunit gamma (Homo sapiens)
Sequence (P22612 whole entry): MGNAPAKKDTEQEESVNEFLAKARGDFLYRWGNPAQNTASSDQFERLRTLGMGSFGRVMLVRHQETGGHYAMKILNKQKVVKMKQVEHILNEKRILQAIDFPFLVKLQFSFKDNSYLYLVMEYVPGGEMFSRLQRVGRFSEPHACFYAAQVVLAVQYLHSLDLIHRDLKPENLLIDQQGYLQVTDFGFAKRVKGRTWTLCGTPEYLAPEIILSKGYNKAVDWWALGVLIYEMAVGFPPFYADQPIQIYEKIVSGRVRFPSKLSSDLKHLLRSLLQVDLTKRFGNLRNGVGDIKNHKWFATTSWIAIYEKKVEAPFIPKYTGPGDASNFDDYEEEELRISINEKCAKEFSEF
Test: Binding affinity to recombinant full-length N-terminal His-FLAG-GST-tagged PRKACG (unknown origin) expressed in baculovirus infected Sf9 insect cells incubated for 1 hr by TR-FRET assay
Reported Property: pKd
pKd here: minus log base 10 of the concentration, concentration in moles per litre.

>  <Structure String>
CO[C@@H]1[C@H](NCCOCCOCCOCCNC(=O)CCC2=[N+]3C(=Cc4c(C)cc(C)n4[B-]3(F)F)C=C2)C[C@H]2O[C@]1(C)n1c3ccccc3c3c4c(c5c6ccccc6n2c5c31)C(=O)NC4

>  <pKd>
6.83

$$$$

// switching to the query compound
-- ask Look at this compound and give its reported pKd. CO[C@@H]1[C@H](N(C)CCOCCOCCOCCNC(=O)CCC2=[N+]3C(=Cc4c(C)cc(C)n4[B-]3(F)F)C=C2)C[C@H]2O[C@]1(C)n1c3ccccc3c3c4c(c5c6ccccc6n2c5c31)C(=O)NC4
-- reply 6.81

---

Quick list: pKd per entry.
Molecular target: Phosphorylase b kinase gamma catalytic chain, liver/testis isoform (Homo sapiens, UniProt P15735)
Sequence (P15735 whole entry, canonical isoform): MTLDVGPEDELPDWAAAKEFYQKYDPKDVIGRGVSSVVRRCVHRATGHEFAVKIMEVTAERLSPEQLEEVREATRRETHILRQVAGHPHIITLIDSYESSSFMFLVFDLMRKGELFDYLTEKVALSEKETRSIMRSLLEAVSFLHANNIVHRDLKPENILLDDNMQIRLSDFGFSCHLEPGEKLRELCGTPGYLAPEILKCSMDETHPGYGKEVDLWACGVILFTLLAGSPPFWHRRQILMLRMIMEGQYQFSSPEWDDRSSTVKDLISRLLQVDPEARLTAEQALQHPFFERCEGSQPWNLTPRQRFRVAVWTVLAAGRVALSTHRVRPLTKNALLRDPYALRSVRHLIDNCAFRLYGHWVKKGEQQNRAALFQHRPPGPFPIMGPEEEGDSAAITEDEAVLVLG
Test: Binding affinity to recombinant full-length N-terminal His-FLAG-GST-tagged PHKG2 (unknown origin) expressed in baculovirus infected Sf9 insect cells incubated for 1 hr by TR-FRET assay
Please report pKd as the negative decimal logarithm of the molar concentration, giving only the number.

>  <Structure String>
CO[C@@H]1[C@H](N(C)CCOCCOCCOCCNC(=O)CCC2=[N+]3C(=Cc4c(C)cc(C)n4[B-]3(F)F)C=C2)C[C@H]2O[C@]1(C)n1c3ccccc3c3c4c(c5c6ccccc6n2c5c31)C(=O)NC4

>  <pKd>
7.14

$$$$

-- ask # input compound: CO[C@@H]1[C@H](NCCOCCOCCOCCNC(=O)CCC2=[N+]3C(=Cc4c(C)cc(C)n4[B-]3(F)F)C=C2)C[C@H]2O[C@]1(C)n1c3ccccc3c3c4c(c5c6ccccc6n2c5c31)C(=O)NC4 ; wanted: its pKd
-- reply 7.15

---

Catalogue of compounds with associated Kd
Target: Tyrosine-protein kinase FRK (Homo sapiens)
Sequence (P42685 whole entry, the tested form may be a part): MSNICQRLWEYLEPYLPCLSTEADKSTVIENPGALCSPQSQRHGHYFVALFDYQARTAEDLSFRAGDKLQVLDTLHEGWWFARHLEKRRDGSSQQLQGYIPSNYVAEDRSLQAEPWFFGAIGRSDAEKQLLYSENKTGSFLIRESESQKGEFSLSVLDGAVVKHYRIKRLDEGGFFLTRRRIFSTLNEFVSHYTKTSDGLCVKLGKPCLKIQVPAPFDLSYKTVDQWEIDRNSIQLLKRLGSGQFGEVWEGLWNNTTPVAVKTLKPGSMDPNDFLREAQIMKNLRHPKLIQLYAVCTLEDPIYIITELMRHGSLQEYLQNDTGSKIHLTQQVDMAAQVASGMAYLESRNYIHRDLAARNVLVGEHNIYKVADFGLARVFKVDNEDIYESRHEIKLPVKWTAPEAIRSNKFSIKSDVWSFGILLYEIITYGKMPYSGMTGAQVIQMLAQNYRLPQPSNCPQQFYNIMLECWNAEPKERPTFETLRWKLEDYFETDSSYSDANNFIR
Experiment: Binding affinity to recombinant full-length N-terminal His-FLAG-GST-tagged FRK (unknown origin) (223 to 505 residues) expressed in baculovirus infected Sf9 insect cells incubated for 1 hr […] by TR-FRET assay
Entry rule: numbers only, all in nM.

>  <Structure String>
CO[C@@H]1[C@H](NCCOCCOCCOCCNC(=O)CCC2=[N+]3C(=Cc4c(C)cc(C)n4[B-]3(F)F)C=C2)C[C@H]2O[C@]1(C)n1c3ccccc3c3c4c(c5c6ccccc6n2c5c31)C(=O)NC4

>  <Reported Property>
Kd

>  <Measured Value>
332

$$$$

Kindly consider the entry below.
-- ask I would be grateful if you could share the reported Kd for CO[C@@H]1[C@H](N(C)CCOCCOCCOCCNC(=O)CCC2=[N+]3C(=Cc4c(C)cc(C)n4[B-]3(F)F)C=C2)C[C@H]2O[C@]1(C)n1c3ccccc3c3c4c(c5c6ccccc6n2c5c31)C(=O)NC4 .
-- reply 372

---

Molecular target: Dual specificity mitogen-activated protein kinase kinase 6 (Homo sapiens, UniProt P52564)
Sequence (P52564 whole entry, the tested form may be a part): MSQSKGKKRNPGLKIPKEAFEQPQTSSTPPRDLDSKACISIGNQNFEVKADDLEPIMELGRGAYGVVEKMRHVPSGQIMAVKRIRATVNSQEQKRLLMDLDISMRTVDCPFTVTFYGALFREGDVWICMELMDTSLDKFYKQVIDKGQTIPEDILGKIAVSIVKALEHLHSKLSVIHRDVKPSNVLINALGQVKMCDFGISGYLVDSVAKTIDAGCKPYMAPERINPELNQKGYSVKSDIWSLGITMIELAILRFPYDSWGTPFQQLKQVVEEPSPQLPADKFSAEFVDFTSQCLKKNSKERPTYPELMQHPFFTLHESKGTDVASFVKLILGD
Test: Binding affinity to recombinant human full length N-terminal GST-tagged MAP2K6 expressed in baculovirus expression system using p38alpha (9 to 352 residues) as substrate incubated for 1 hr by TR-FRET assay
Reported Property: Kd (nM)
Give the value, in units of nM, as a plain number.

>  <Structure String>
CO[C@@H]1[C@H](N(C)CCOCCOCCOCCNC(=O)CCC2=[N+]3C(=Cc4c(C)cc(C)n4[B-]3(F)F)C=C2)C[C@H]2O[C@]1(C)n1c3ccccc3c3c4c(c5c6ccccc6n2c5c31)C(=O)NC4

>  <Reported Property>
Kd

>  <Measured Value>
16

$$$$

# evaluate next
-- ask # query: Kd | item CO[C@@H]1[C@H](NCCOCCOCCOCCNC(=O)CCC2=[N+]3C(=Cc4c(C)cc(C)n4[B-]3(F)F)C=C2)C[C@H]2O[C@]1(C)n1c3ccccc3c3c4c(c5c6ccccc6n2c5c31)C(=O)NC4 | system: Dual specificity mitogen-activated protein kinase kinase 6 (Homo sapiens, UniProt P52564)
-- reply 28

Ref: ChEMBL document CHEMBL4321812
